# test: Catalepsy-inducing effect in rats (method of Tedeschi)
# Format: in vivo, male Sprague-Dawley (Charles River) rats
# test context: rat, in vivo, ip
Structures can show the parent of a compound that is named as a salt.
test readout: TD50

Recorded results for 3 compounds are shown here.
COc1ccc(S(N)(=O)=O)cc1C(=O)NCC1CCCN1Cc1cccc(Cl)c1 (stereo not shown) [SL-C.193 (cl)] ... > 300 mg/kg
CCN1CCCC1CNC(=O)c1cc(S(N)(=O)=O)ccc1OC (stereo not shown) [Sulpiride (cl), hydrochloride, reference compound] ... > 100 mg/kg
C#CCN1CCCC1CNC(=O)c1cc(S(N)(=O)=O)ccc1OC (stereo not shown) [SL-C.299 (cl)] ... > 150 mg/kg

Entry COc1ccc(S(N)(=O)=O)cc1C(=O)NCC1CCCN1Cc1ccc(F)cc1 (racemic) [SL-C.205 (racemic) (cl)] has what TD50? > 480 mg/kg

* * *

LD50 at 48 h reference
# test: in vivo
# test context: mouse, in vivo, iv, LD 50 over 48 hours, mice, 48 hours
Please respond with the number in mg/kg and leave the unit unwritten.

COc1ccc(S(N)(=O)=O)cc1C(=O)NCC1CCCN1Cc1ccc(F)cc1 (racemic) [SL-C.205 (racemic) (ms)] ... 190

Now for a further molecule.
Endpoint output: LD50 at 48 h of COc1ccc(S(N)(=O)=O)cc1C(=O)NCC1CCCN1Cc1ccc(F)cc1 (single isomer, unassigned) [SL-C.205 1 (ms)] . Value? 160

* * *

# test: in vivo
# test context: mouse, in vivo, po, LD 50, oral, mice, 7 days
# Experimental: The compounds were administered in the form of their hydrochlorides or of their methanesulphonates. The acute toxicity was evaluated in Swiss CDl mice of both sexes, of average weight 20 g. The 50% lethal dose (LD 50) of each product was determined by a graphical method.
test readout: LD50 at 168 h
Note to self: number, then unit, no commentary.

# LD50 at 168 h lookup, item COc1ccc(S(N)(=O)=O)cc1C(=O)NCC1CCCN1Cc1ccc(F)cc1 (racemic) [SL-C.205 (racemic) (cl)] 3000 mg/kg

* * *

# test: in vivo
# test context: mouse, in vivo, ip, LD 50 over 48 hours, intraperitoneal, mice, 48 hours
Our labelling divides records by LD50 at 48 h into ranges: lower segment = under 300 mg/kg, middle segment = from 300 mg/kg up to 400 mg/kg, upper segment = 400 mg/kg and over

Known results for molecules:
COc1ccc(Cl)cc1C(=O)NCC1CCCN1Cc1ccc(F)cc1 (stereo not shown) ... lower segment
COc1ccc(S(N)(=O)=O)cc1C(=O)NCC1CCCN1Cc1ccccc1F (stereo not shown) ... upper segment
COc1ccc(S(N)(=O)=O)cc1C(=O)NCC1CCCN1Cc1cccc(F)c1 (stereo not shown) ... upper segment

# bin label for COc1ccc(S(=O)(=O)N(C)C)cc1C(=O)NCC1CCCN1CC1CC1 (stereo not shown) lower segment

State the class of the molecule shown: CCS(=O)(=O)c1ccc(OC)c(C(=O)NCC2CCCN2CC2CC2)c1 (stereo not shown) middle segment

Form field 'band' for COc1ccc(S(N)(=O)=O)cc1C(=O)NCC1CCCN1CC=Cc1ccc(F)cc1 (stereo not shown) upper segment

Category lookup for the molecule COc1ccc(S(N)(=O)=O)cc1C(=O)NC[C@@H]1CCCN1CC1CC1 [77.075 (S) (+) (ms)] middle segment

# classify by LD50 at 48 h band: COc1ccc(S(N)(=O)=O)cc1C(=O)NCC1CCCN1C(c1ccccc1)c1ccccc1 (stereo not shown) upper segment

Form: Item = COc1ccc(S(N)(=O)=O)cc1C(=O)NCC1CCCN1CCC#N (stereo not shown) ; Class = ? upper segment

Which band does COc1ccc(S(C)(=O)=O)cc1C(=O)NCC1CCCN1CC1CC1 (stereo not shown) fall in? lower segment

State the class of the molecule shown: C#CCN1CCCC1CNC(=O)c1cc(S(N)(=O)=O)ccc1OC (stereo not shown) lower segment

Could you place COc1ccc(S(N)(=O)=O)cc1C(=O)NCC1CCCN1CC1CCCCC1 (stereo not shown) in its proper category? Many thanks. middle segment

Using the reported LD50 at 48 h, which band applies to COc1ccc(S(N)(=O)=O)cc1C(=O)NCC1CCCN1Cc1ccc(F)cc1 (racemic) [SL-C.205 (racemic) (cl)] ? upper segment

Class (by measured LD50 at 48 h) for COc1ccc(S(N)(=O)=O)cc1C(=O)NCC1CCCN1C(C)c1ccccc1 (single isomer, unassigned) upper segment

Hey, just so you know, these numbers are from patent US4172143A.
